Listed below: B-score values for each entry.
targetUnderTest: Muscarinic acetylcholine receptor M1 (Rattus norvegicus) (UniProt P08482)
Sequence (P08482 whole entry, looked up): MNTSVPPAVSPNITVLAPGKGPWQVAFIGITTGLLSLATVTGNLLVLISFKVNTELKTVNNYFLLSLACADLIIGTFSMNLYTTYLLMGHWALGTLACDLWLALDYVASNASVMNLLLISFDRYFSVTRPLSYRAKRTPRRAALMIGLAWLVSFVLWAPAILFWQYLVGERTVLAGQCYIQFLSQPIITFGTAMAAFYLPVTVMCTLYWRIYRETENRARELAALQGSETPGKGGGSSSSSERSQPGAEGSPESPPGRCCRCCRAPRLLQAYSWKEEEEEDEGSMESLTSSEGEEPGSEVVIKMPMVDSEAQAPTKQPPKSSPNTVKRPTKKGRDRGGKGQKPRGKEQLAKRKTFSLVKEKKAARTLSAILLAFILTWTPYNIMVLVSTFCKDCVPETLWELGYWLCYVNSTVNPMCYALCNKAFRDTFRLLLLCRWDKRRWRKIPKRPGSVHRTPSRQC
protocolDetails: blocks the rat M1 muscarinic receptor response to acetylcholine (AID 628)
protocolConditions: CHO-M1 cells, Fluo-4 calcium, ACh EC80 antagonist mode; at 10 µM; active compounds read low
The whole screen tested about 64,000 compounds, of which about 2,200 (3.4%) were called active. Only a selection was taken, and actives are over-represented in it overall.

- molecule: "O=c1c2ccccc2nc(-c2ccco2)n1-c1ccc(Br)cn1"
  value: "-0.192 (inactive)"
- molecule: "COc1ccc(C2NCc3ccc4c(c3-n3cccc32)OCO4)cc1OC (configuration not stated)"
  value: "-4.39 (active)"
- molecule: "CCN(CC)P(=O)(Oc1cccc(C)c1)N(CC)CC"
  value: "0.467 (inactive)"
- molecule: "CCOC(=O)CC1=C(C(=O)OCC)C2(C(=O)N1)C(C(=O)OC)=C(N)Oc1ccccc12 (configuration not stated)"
  value: "0.186 (inactive)"
- molecule: "CCOC(=O)c1c(C)c(C(=O)N2CCC3(CC2)OCCO3)c(C)n1CC"
  value: "0.059 (inactive)"
- molecule: "Fc1ccc(N2CCN(Cc3ccc4c(c3)OCO4)CC2)cc1"
  value: "-2.36 (active)"
- molecule: "CC(C)c1ccc(O)c(CN2CCN(c3ccccc3)CC2)c1"
  value: "0.336 (inactive)"
- molecule: "COc1ccccc1CN1CCN(C(=O)Cc2ccccc2)CC1"
  value: "0.441 (inactive)"

Request: Consider the molecule Cc1ccc(C)c(NC2=NCCCS2)c1 and give its measured B-score.
Response: -1.64 (inactive)

Request: Same thing, different molecule: Cc1nc2nc(C)c(CCC(=O)N3CCC4(CC3)OCCO4)c(C)n2n1
Response: 0.0167 (inactive)

Request: Same lookup for c1ccc(C2NCc3ccccc3-n3cccc32)cc1 (configuration not stated) , please.
Response: -0.457 (inactive)

Request: Continue with O=C1NC(=O)C(C/C=C/c2ccccc2)C(=O)N1
Response: -0.333 (inactive)

====

targetUnderTest: Muscarinic acetylcholine receptor M1 (Rattus norvegicus)
protocolDetails: blocks the rat M1 muscarinic receptor response to acetylcholine (AID 628)
protocolConditions: CHO-M1 cells, Fluo-4 calcium, ACh EC80 antagonist mode; at 10 µM; active compounds read low
In all, about 64,000 compounds went through this assay and about 2,200 (3.4%) were called active. Shown is part of a subset that was picked to be rich in actives.
reportedProperty: B-score

- cpdSmiles: "CCC/C(=N\\O)c1c[nH]c2ccccc12"
  reportedProperty: "B-score"
  value: "-0.0862 (inactive)"
- cpdSmiles: "COc1ccccc1N=C1SCCCN1C"
  reportedProperty: "B-score"
  value: "0.926 (inactive)"

Next molecule, B-score to be filled in.
Request: Param readout = B-score; param system = Muscarinic acetylcholine receptor M1 (Rattus norvegicus); param query = COc1ccc(C(=O)CC2C(=O)N(C)C(=O)N(C)C2=O)cc1 ; response: value
Response: -0.22 (inactive)
